molecular target: GdauOBP1 (Galeruca daurica, UniProt A0A1U9W4Y5); experiment: Fluorescence competitive binding assay (1-NPN reporter), recombinant GdauOBP1; settings: GdauOBP1; 2 μM protein, 1-NPN saturated, 50 mM Tris–HCl pH 7.4; read-out: IC50
Sequence (A0A1U9W4Y5 entry or part of it): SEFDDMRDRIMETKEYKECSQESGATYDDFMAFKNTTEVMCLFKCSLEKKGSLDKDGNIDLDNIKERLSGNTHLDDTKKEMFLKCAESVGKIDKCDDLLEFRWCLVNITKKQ
pIC50: −log10 of the molar value.
OUTCOME_MEASURE: pIC50

CSSSC [Dimethyl trisulfide] = 4.20
C1=CC=CCC=C1 [1,3,5-cycloheptatriene, 1,3,5-Cycloheptatriene] = 4.20
C=CC(=C)CCC=C(C)C [Myrcene] = 4.08
CSSC [Dimethyl disulfide] = 4.19

###

target: GdauOBP15 (Galeruca daurica, UniProt A0A1U9W4Z9); test: Fluorescence competitive binding assay (1-NPN reporter), recombinant GdauOBP15
Sequence (A0A1U9W4Z9 entry or part of it): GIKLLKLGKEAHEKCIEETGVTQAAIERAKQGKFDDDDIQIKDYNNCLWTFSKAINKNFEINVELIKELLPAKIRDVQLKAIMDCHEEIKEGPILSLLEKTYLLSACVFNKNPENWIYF
OUTCOME_MEASURE: IC50 (µM)

CCC/C=C\CO [(Z)-2-hexen-1-ol, (Z)-2-Hexen-1-ol] = 76
CCCCCC=O = 68.8
Cc1ccc(C)cc1 = 49.9
C1CSCSC1 = 57.2
COC(=O)c1ccccc1 [Methyl benzoate] = 35.9
C=CCSSCC=C [Diallyl disulfide] = 42.3
CCCC=CC=O = 41.7
